biological target: UniProt P08183
Sequence (P08183 whole entry): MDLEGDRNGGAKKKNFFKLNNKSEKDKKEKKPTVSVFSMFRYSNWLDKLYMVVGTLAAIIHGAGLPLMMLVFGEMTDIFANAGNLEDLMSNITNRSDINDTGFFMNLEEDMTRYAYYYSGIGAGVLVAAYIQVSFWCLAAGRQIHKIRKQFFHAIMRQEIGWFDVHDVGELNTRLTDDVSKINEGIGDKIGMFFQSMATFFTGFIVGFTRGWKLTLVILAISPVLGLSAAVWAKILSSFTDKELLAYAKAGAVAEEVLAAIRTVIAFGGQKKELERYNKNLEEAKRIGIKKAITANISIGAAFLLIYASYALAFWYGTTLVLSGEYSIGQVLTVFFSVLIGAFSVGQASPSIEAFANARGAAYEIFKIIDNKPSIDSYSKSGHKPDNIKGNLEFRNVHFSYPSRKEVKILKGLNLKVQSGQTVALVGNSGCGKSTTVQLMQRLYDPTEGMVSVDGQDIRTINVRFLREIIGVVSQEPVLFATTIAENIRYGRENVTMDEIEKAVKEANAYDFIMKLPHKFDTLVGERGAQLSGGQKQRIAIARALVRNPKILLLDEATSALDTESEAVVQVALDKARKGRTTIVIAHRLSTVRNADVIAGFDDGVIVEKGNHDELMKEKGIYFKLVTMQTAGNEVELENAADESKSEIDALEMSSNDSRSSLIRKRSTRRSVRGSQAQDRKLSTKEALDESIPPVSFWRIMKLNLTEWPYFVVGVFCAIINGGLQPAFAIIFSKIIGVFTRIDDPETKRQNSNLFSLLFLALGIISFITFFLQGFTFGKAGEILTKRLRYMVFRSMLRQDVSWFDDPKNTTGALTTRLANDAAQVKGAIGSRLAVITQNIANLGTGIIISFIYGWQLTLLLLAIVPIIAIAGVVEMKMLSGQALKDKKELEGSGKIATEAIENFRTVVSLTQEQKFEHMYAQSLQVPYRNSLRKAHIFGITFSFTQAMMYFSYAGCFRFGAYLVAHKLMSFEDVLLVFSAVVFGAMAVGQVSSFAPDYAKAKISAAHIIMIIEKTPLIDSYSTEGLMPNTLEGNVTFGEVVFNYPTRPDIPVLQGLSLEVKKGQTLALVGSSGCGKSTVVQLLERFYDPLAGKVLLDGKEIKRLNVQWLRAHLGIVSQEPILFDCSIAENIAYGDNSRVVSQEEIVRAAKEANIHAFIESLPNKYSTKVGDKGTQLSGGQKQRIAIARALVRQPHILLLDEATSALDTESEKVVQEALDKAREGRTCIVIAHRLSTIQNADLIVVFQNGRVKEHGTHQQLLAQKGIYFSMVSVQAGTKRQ
metric: IC50

stdin: Return reported IC50; argument: Cc1cc(Nc2ncnc3ccc(NC4=NC(C)(C)CO4)cc23)ccc1Oc1ccn2ncnc2c1 [tucatinib]
stdout: 10 to 30 µM

====

system: MATE1/2K; experiment: clinical; conditions: both, human, plasma, oral
metric: AUC (ng·h/mL)
Write the answer as a number in ng·h/mL, unit excluded.

stdin: Form field: AUC recorded for CN(C)C(=N)N=C(N)N [metformin] with MATE1/2K (enter value)
stdout: 11600

====

tested on: CYP3A4/5; assay: Cytochrome P450 3A4/5 inhibition in human liver microsomes (Example 4); assay type: in vitro ADME; conditions: both sexes, pooled human liver microsomes, pH 7.4, probe testosterone (6β-hydroxylation); human liver microsomes, up to 10 μM; read-out: Maximum direct inhibition of CYP3A4/5-mediated testosterone 6p-hydroxylation
metric: inhibition at 5 min (%)
Numeric answer only, unit % assumed.

stdin: Look at this compound and give its reported inhibition at 5 min. Cc1cc(Nc2ncnc3ccc(NC4=NC(C)(C)CO4)cc23)ccc1Oc1ccn2ncnc2c1 [tucatinib]
stdout: 44

====

tested on: MATE1/2K; experiment: clinical; details: both, human, plasma, oral, 850 mg
metric: AUC(0-t) (ng·h/mL)
Report the figure in ng·h/mL without appending any unit label.

stdin: Look up AUC(0-t) for this molecule: CN(C)C(=N)N=C(N)N
stdout: 8150

====

system: MATE1/2K; assay: clinical; conditions: both, human, plasma, oral, 850 mg
metric: Cmax (ng/mL)
Number only, in ng/mL; omit the unit.

stdin: Endpoint output: Cmax of CN(C)C(=N)N=C(N)N . Value?
stdout: 1310

====

tested on: CYP3A4/5; assay: Cytochrome P450 3A4/5 inhibition in human liver microsomes (Example 4); format: in vitro ADME; details: both sexes, human, pooled human liver microsomes, pH 7.4, probe midazolam (1′-hydroxylation); midazolam 1′-hydroxylation; read-out: Efficiency of inactivation (kinact/KI) (converted)
metric: kinact/KI (M⁻¹ s⁻¹)
The answer is to be given in M⁻¹ s⁻¹; state only the numeric part.

stdin: # lookup: kinact/KI of Cc1cc(Nc2ncnc3ccc(NC4=NC(C)(C)CO4)cc23)ccc1Oc1ccn2ncnc2c1 [tucatinib]
stdout: 350

====

target: MATE2K (Homo sapiens, UniProt Q86VL8); test: In vitro inhibition of MATE2K transporter; type: in vitro ADME
Sequence (Q86VL8 1-566 isoform Q86VL8-3): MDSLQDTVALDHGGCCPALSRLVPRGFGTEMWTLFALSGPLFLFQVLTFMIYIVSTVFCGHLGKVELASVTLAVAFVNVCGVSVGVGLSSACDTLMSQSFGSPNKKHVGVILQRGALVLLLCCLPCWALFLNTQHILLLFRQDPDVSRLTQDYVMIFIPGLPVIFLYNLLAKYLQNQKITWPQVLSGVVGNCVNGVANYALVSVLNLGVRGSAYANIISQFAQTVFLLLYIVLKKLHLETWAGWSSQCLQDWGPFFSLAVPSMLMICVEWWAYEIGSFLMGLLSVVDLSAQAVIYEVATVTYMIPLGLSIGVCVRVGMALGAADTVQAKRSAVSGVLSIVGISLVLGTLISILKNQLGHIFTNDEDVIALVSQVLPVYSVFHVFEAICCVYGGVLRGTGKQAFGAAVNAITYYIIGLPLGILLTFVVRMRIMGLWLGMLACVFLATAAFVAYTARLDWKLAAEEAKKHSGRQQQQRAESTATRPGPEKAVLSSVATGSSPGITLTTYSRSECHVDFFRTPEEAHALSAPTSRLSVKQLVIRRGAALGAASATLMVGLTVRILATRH
metric: pIC50
// returns pIC50 (minus log10 of molar concentration), number only

stdin: Entry Cc1cc(Nc2ncnc3ccc(NC4=NC(C)(C)CO4)cc23)ccc1Oc1ccn2ncnc2c1 has what pIC50?
stdout: 6.85

====

Biological target: MATE1 (Homo sapiens, UniProt Q96FL8)
Sequence (Q96FL8 1-570): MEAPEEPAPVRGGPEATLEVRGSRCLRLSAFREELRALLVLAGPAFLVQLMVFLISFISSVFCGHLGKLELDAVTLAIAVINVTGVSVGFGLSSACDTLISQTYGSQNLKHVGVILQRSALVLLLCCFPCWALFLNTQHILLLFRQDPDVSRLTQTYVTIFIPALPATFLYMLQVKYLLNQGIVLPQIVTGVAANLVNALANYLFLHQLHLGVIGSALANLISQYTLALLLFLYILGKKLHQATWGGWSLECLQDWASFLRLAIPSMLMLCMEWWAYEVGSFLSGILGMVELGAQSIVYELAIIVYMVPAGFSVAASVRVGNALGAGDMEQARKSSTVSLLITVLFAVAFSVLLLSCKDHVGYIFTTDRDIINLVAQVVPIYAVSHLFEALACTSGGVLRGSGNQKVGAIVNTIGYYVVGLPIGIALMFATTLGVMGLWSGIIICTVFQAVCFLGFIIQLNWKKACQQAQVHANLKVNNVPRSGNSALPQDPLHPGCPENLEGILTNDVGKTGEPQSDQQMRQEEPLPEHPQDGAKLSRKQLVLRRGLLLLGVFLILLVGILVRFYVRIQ
Experiment: Inhibition of MATE1 mediated transport of creatinine in transfected MDCK-II cells (Example 3)
Format: in vitro ADME
Design: expressed in transfected cells; host or cells: MDCK-II
Conditions: probe substrate creatinine
metric: IC50 (nM)
Provide the reading as a plain figure in nM.

stdin: For Cc1cc(Nc2ncnc3ccc(NC4=NC(C)(C)CO4)cc23)ccc1Oc1ccn2ncnc2c1 , what is its reported IC50?
stdout: 85.5

stdin: # query: IC50 of entry Cc1cc(Nc2ncnc3ccc(NC4=NC(C)(CO)CO4)cc23)ccc1Oc1ccn2ncnc2c1 (centres unmarked)
stdout: 86.3

====

system: MATE1/2K; assay: clinical; settings: both, human, plasma, oral, 850 mg
metric: AUC (ng·h/mL)
Report the figure in ng·h/mL without appending any unit label.

stdin: Which AUC reading was recorded for the compound CN(C)C(=N)N=C(N)N [metformin] ?
stdout: 8330

====

Molecular target: CYP2C8 (Homo sapiens)
Sequence (P10632 1-490): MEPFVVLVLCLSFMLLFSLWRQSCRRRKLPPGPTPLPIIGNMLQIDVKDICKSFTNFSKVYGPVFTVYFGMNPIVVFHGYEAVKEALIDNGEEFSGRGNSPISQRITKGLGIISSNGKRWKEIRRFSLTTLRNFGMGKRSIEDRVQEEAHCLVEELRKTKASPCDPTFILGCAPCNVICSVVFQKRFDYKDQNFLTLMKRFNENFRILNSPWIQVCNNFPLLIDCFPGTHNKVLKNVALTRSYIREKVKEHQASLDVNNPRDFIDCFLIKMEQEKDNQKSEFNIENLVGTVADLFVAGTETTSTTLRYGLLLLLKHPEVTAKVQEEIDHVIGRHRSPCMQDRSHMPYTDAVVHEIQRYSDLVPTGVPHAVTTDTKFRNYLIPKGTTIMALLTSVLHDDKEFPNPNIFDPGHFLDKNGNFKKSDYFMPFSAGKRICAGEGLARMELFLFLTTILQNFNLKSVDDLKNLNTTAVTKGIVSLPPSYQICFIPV
Experiment: Ki determination in pooled human liver microsomes, amodiaquine N-deethylase (Example 5)
Format: in vitro ADME
Settings: marker substrate amodiaquine
metric: Ki (nM)
Provide only the numeric value, understood in nM.

stdin: I would be grateful if you could share the reported Ki for Cc1cc(Nc2ncnc3ccc(NC4=NC(C)(C)CO4)cc23)ccc1Oc1ccn2ncnc2c1 .
stdout: 170
